assay: protein stability index of a GFP-peptide fusion (GPS, HEK-293T) (PSI 1-6); higher = more stable; conditions: treatment: MLN4924 1 uM, 8 h; c terminus: a fixed tail appended;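 also: 24-mer peptide tiles fused after GFP, lentivirally expressed, FACS-sorted into six equal bins by GFP/DsRed ratio, decoded by Illumina sequencing, PSI is the read-weighted mean bin number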
If the reported protein stability index equals or exceeds 3, assign MET. If not, assign NOT MET.

| residueCodes | discreteLabel |
| --- | --- |
| AILFTRQDLCGVSTCDTLGMADVG [ADAMTS4] | NOT MET |
| ERAKREMVMYSITVAFWLLNSWLW [MFF] | NOT MET |
| SRDEAALPELLLGALPVGSNLTSN [RETREG3] | MET |
| NWRRKHEEFIATIRAAKGLDQALK [ZC2HC1A] | NOT MET |
| YGPLKPLPQTPHLEEDLKEVLRSE [MYBL2] | MET |
| NYTATVRGLRGPNLTSPASITFTT [TNXB] | NOT MET |

---

assay: protein stability index of a GFP-peptide fusion (GPS, HEK-293T) (PSI 1-6); higher = more stable; conditions: treatment: MLN4924 1 uM, 8 h; c terminus: a fixed tail appended
protein stability index values by entry

| residueCodes | protein stability index |
| --- | --- |
| SFGQVVKAYDHQTQELVAIKIIKN [DYRK1B] | 2.97 |
| IFYFVIQRKKWVDLAWMITFYVRF [FADS1] | 2.93 |
| QCANKVLQHMKAVQADQERERQRR [LRRC59] | 4.17 |
| GGKRRRDDISVDSLDFTKKILHTA [PPP2R2C] | 3.77 |
| VVQTLYPFSSVTEEELNFEKGETM [NCK2] | 3.77 |
| TVGDLGIVRRRSRDVPESPQHAAD [YJU2B] | 5.3 |
| NGMAIIRPPGHHAQHSLMDGYCMF [HDAC6] | 2.21 |
| QYQTVRYDILPLSPVSRNRLAQVK [CTDNEP1] | 3.04 |
| QSGATISMPCSTDKENGENVGLES [SASS6] | 5.43 |
| EVQGDQQAWFGFAGTPGYLSPEVL [CAMK2B] | 3.14 |

---

experiment: protein stability index of a GFP-peptide fusion (GPS, HEK-293T) (PSI 1-6); higher = more stable; settings: treatment: DMSO; c terminus: a fixed tail appended

| residueCodes | protein stability index |
| --- | --- |
| WTHVTLLIVVTQSHLVIHNLFEGM [CDS2] | 3.22 |
| ICNNKWFTDTSIILFLNKKDLFEE [GNAI1] | 3.06 |
| VCMDLRANLKQVKKEDTEKERDLR [TNNI2] | 4.71 |
| ADEDDDRDVALQIHFTLIQAFCCE [GADD45A] | 2.28 |
| SKYHRFISFTLYLIGFCMFVLSLV [CDS2] | 2.04 |
| HMLLNTTLNIKETDSKELSMAKEV [ZBED1] | 4.26 |

---

assay: protein stability index of a GFP-peptide fusion (GPS, HEK-293T) (PSI 1-6); higher = more stable; conditions: treatment: DMSO; c terminus: a fixed tail appended
Would you mind sorting the entries by protein stability index according to these classes? low (below 4), intermediate (4 to below 5), high (5 or more)

| residueCodes | discreteLabel |
| --- | --- |
| RERNMAPDLRQDFNMMEQKKRVSM [ADD1] | intermediate |
| AGILSNLTCNNYKNKMMVCQVGGI [CTNNB1] | low |
| INDEMQAKGIPQRAPPKRKRKRVK [PCMTD1] | high |
| QQKWTKPARAGSEVEWTEDLALDL [C2CD2L] | intermediate |
| PNPPTLQEAGLSHTEVLFVQDLTD [FAF2] | intermediate |
| PSLGPALSTGPRGLCAMPQTGDAF [VENTX] | low |
| RQFLPEEFMKTLEKTGPQLTSRIK [DENND6A] | low |
| KDAALATALGDKKSLEGDLEDLKD [LMNB1] | high |
| CVLRCSVLEIEQSMNRVKNISDAD [FEM1B] | low |
| LKERYQKIGDTKRNTPIEALCENF [CSNK1G1] | low |
